Here we list compounds with their recorded log10(Ki) when tested on D(2) dopamine receptor (Homo sapiens).
Sequence (P14416 whole entry): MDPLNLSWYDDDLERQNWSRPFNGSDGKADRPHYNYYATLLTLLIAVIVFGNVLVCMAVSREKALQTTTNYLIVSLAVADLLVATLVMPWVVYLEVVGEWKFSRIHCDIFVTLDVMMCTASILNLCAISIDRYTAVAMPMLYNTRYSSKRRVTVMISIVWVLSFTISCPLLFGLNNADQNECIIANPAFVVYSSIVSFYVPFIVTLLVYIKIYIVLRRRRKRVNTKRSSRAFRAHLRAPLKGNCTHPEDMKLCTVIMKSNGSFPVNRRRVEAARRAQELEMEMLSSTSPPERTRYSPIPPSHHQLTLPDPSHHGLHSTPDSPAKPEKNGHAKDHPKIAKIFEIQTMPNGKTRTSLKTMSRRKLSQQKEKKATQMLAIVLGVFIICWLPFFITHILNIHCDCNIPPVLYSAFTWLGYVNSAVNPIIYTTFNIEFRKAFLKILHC
observable: log10(Ki) (log10 of the value in nM)

>>> measurement("CN1CCc2ccc3[nH]c(=O)c4cccc5c4c3c2[C@H]1C5")
3.79
>>> measurement("CN1CCc2ccc3c(=O)[nH]c4cccc5c4c3c2[C@H]1C5")
1.74
>>> measurement("CN1CCc2ccc3oc(=O)c4cccc5c4c3c2[C@H]1C5")
2.42
>>> measurement("CN1CCc2ccc3ncc4cccc5c4c3c2[C@H]1C5")
2.51
>>> measurement("CN1CCc2ccc3cnc4cccc5c4c3c2[C@H]1C5")
3.12
